Assay: Oral absorption in vivo (monkeys): enteric-coated hard gelatin capsules by gavage, plasma bioassay
Conditions: monkey, plasma, 300 mg per capsule, formulation 300 mg Ceftriaxonnatrium, 200 ml Natriumcaprylat, 75 mg Laureth-12, 415 mg Witepsol H15, read-out: Cmax-Bereich
PROPERTY_NAME: Cmax

Enquiry: Look up Cmax for this compound: CO/N=C(\C(=O)N[C@@H]1C(=O)N2C(C(=O)O)=C(CSc3nc(=O)c(=O)[nH]n3C)CS[C@H]12)c1csc(N)n1
Return: 15000 to 66300 ng/mL

====

Test: Enteral absorption in vivo (rats): intraduodenal injection, antibiotic plasma level by agar-plate bioassay
Conditions: rat, in vivo, 5 mg, Cmax, Dosis = 5 mg/0,5 ml, Labrasol + Laureth-12 (weight ratio 8:1)
PROPERTY_NAME: Cmax (ng/mL)
Please state the figure in ng/mL; there is no need to write the unit.

Enquiry: Look up Cmax for this compound: CC1(C)S[C@@H]2[C@H](NC(=O)Cc3ccccc3)C(=O)N2[C@H]1C(=O)O
Return: 5200

Source listed as patent EP0370481A2.
